Where these numbers come from: PubChem BioAssay

- assay_method_text: FRG1 promoter luciferase signal modulators, primary screen, FRG1 inhibition for FSHD, cell-based, C2C12 myotubes, firefly/Renilla luciferase, luminescence (AID 1084)
- assay_conditions: higher = more signal, called active from +8 up or from −8 down

# compound, z-score
rows = [
    ("C=CCC1=C[C@H]2[C@H]([C@@H]3C=C[C@]2(CC=C)C(=O)[C@]32CO2)[C@@]2(CO2)C1=O", -1.52),
    ("CCN1C(C)=C(C(=O)OC)[C@@H](c2ccccc2)N2C(=O)[C@@]3(C(=O)OC)O[C@@]12[C@@H]1C(=O)N(C)C(=O)[C@@H]13", -1.36),
    ("C=CCC(OC(C)=O)[C@@H]1[C@@H](N(Cc2cccc3ccccc23)C(=O)Cc2ccc(F)cc2)c2cc(OCCCO)ccc2N1C(=O)Cc1ccc2ccccc2c1 (some centres not stated)", -1.32),
    ("CO[C@@H]1COC(=O)[C@H](C)NC(=O)CC=C[C@@H](C)[C@H](OC)COC(=O)[C@H](C)NC(=O)CC=C[C@H]1C", 0.0543),
    ("NC(=O)[C@H]1[C@@H]2C(=O)O[C@@H](c3ccccc3)[C@@H](c3ccccc3)N2[C@@H](c2ccc(O)cc2)[C@]12C(=O)Nc1ccc(C#CCCO)cc12", -0.89),
    ("O=C1C[C@@](C(=O)NC2CC2)(c2ccc([N+](=O)[O-])cc2)[C@@H](c2ccc(CO)cc2I)N1CC12CC3CC(CC(C3)C1)C2", -2.34),
    ("CC(C)C[C@@H]1NC(=O)[C@H]2C[C@@H](C(=O)NCCCCCC[N+](C)(C)C)[C@@H](c3ccc(O)cc3)N2C1=O", 2.82),
]

* * *

- assay_method_text: COS7 lysate on small-molecule microarray, probe aHis, 635 nm (AID 1123);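 note: z-score combines 667nm fluorescence intensity with signal-to-noise per printed compound spot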
- assay_conditions: COS7 cell lysate, fluorescence, higher = more signal
quantity_kind: composite z-score

# compound, quantity_kind, obs_value
records = [
    ("CCN1C(C)=C(C(=O)OC)[C@@H](c2ccccc2)N2C(=O)[C@@]3(C(=O)OC)O[C@@]12[C@@H]1C(=O)N(C)C(=O)[C@@H]13", "composite z-score", 0.32),
    ("C/C(=N\\O)C(=O)NCCCCCNC(=O)OCc1ccccc1", "composite z-score", 0.332),
    ("CO[C@H]1COC(=O)[C@@H](C)NC(=O)CC=C[C@@H](C)[C@H](OC)COC(=O)CC=C[C@@H]1C", "composite z-score", -0.724),
    ("CN1C(=O)C2C=CC(C(O)C3CC=CCC3)N(Nc3ccccc3)C2C1=O (configuration not stated)", "composite z-score", 2.75),
    ("NC(=O)NCC#Cc1ccc2c(c1)[C@]1(C(=O)N2)[C@H](C(N)=O)[C@H]2C(=O)O[C@H](c3ccccc3)[C@H](c3ccccc3)N2[C@@H]1c1ccccc1OCCO", "composite z-score", 0.841),
    ("C=CCOC(=O)[C@@H]1[C@H]2C(=O)O[C@H](c3ccccc3)[C@H](c3ccccc3)N2[C@H](c2ccc(OCCOC(=O)[C@H]3C[C@H]4C(=O)N5CCC[C@H]5C(=O)N4[C@H]3c3ccc(O)cc3)cc2)[C@@]12C(=O)Nc1ccccc12", "composite z-score", 1.12),
    ("CN(C)C(=O)[C@@]1(Cc2ccccc2N=[N+]=[N-])N=C(c2ccc(OCCCO)cc2)O[C@H]1c1ccccc1CN=[N+]=[N-]", "composite z-score", 3.13),
    ("CC(=O)NCCCC[C@@H]1NC(=O)[C@H]2C[C@@H](C(=O)NCCCCCCN(C)C)[C@@H](c3cccc(OCCO)c3)N2C1=O", "composite z-score", 1.73),
    ("C#C[C@H](O[Si](C#Cc1ccccc1)(C(C)C)C(C)C)c1ccccc1", "composite z-score", 0.0271),
    ("CCCNC(=O)[C@@]1(Sc2ccc(C)cc2)CC(=O)N(Cc2ccccc2Cl)[C@@H]1c1ccc(CO)cc1", "composite z-score", 1.67),
    ("COCCOC(=O)N1C(=O)[C@@]2(c3cc(C#CCNC(N)=O)ccc31)[C@H](c1ccc(OCCO)cc1)N1[C@H](c3ccccc3)[C@H](c3ccccc3)OC(=O)[C@H]1[C@@H]2C(=O)Nc1nc2ccccc2s1", "composite z-score", 0.447),
    ("CO[C@@H]1COC(=O)[C@H](C)NC(=O)CC=C[C@@H](C)[C@H](NS(=O)(=O)c2ccc(C)cc2)COC(=O)CC=C[C@@H]1C", "composite z-score", 0.0657),
    ("CC(C)=C1C(=O)C(c2ccccc2)=C2CN3C(=O)N(CCc4ccccc4)C(=O)[C@]3(Cc3ccccc3)[C@H]21", "composite z-score", 0.572),
    ("COc1ccc(NN2C(C(O)c3cc(OC)c(OC)c(OC)c3)C=CC3C(=O)N(C4CCCCC4)C(=O)C32)cc1 (configuration not stated)", "composite z-score", 2.42),
    ("CCCC=C(CCC)[C@@H](NS(=O)(=O)c1cccc(C(F)(F)F)c1)c1ccc(C(=O)OC)cc1", "composite z-score", 0.455),
    ("COC(=O)C1=CC(c2ccc(CO)cc2)=CC(C2CC2)N(Cc2sc3ccccc3c2Cl)C=C1C(=O)OC (configuration not stated)", "composite z-score", 2.78),
    ("CO[C@H]1COC(=O)CC=C[C@@H](C)COC(=O)[C@@H](C)NC(=O)CC=C[C@@H]1C", "composite z-score", -0.736),
]

* * *

- System: Neuregulin-1 EGF-like domain
- assay_method_text: binders of neuregulin-1 EGF-like domain, primary screen, biochemical, small-molecule microarray, 635 nm fluorescence (AID 1081);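 note: binding of the protein to compounds printed on small-molecule microarray slides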
- assay_conditions: small-molecule microarray binding, higher = more signal
Lab note: anything with composite z-score at or over 1 counts as Fulfilled; the rest go in Not fulfilled.

# compound, tgt, category_label
data = [
    ("O=C(NCc1ccccc1)[C@@]1(CCS(=O)(=O)c2ccccc2)COC(c2ccc(OCCCO)cc2)=N1", "Neuregulin-1 EGF-like domain", "Fulfilled"),
    ("C=CCOC(=O)[C@@H]1[C@H]2C(=O)O[C@H](c3ccccc3)[C@H](c3ccccc3)N2[C@H](c2ccc(OCCOC(=O)[C@H]3C[C@H]4C(=O)N5CCC[C@H]5C(=O)N4[C@H]3c3ccc(O)cc3)cc2)[C@@]12C(=O)Nc1ccccc12", "Neuregulin-1 EGF-like domain", "Fulfilled"),
    ("C=CC(=O)O[C@@H](Cc1ccccc1)[C@H]1C2C=CCCC=C2CN1Cc1cccc(Cl)c1 (stereo partly drawn)", "Neuregulin-1 EGF-like domain", "Not fulfilled"),
    ("C[C@H]1C2[C@H](Cc3ccccc3)NC(=O)[C@]23C(=O)N[C@H](Cc2ccccc2)C(=O)N[C@@H](Cc2ccccc2)C(=O)NC/C=C\\C/C=C/C3[C@@H]2O[C@]12C (stereo partly drawn)", "Neuregulin-1 EGF-like domain", "Not fulfilled"),
    ("C=CC[C@]1(C(=O)N2CCCCC2)N=C(c2ccc(OCCCO)cc2)O[C@H]1c1ccccc1N=[N+]=[N-]", "Neuregulin-1 EGF-like domain", "Fulfilled"),
    ("CO[C@@H]1COC(=O)CC=C[C@@H](C)[C@H](OC)COC(=O)CC=C[C@H]1C", "Neuregulin-1 EGF-like domain", "Not fulfilled"),
    ("CC(=O)Nc1ccc([C@H]2[C@H](C)CC[C@H]3C(=O)N4[C@@H](CC[C@@H](C)[C@@H]4c4ccc(NC(C)=O)cc4)C(=O)N32)cc1", "Neuregulin-1 EGF-like domain", "Fulfilled"),
    ("O=C1O[C@@H](c2ccccc2)[C@@H](c2ccccc2)N2[C@@H](c3ccc(OCCO)cc3)[C@]3(C(=O)Nc4ccc(C#CCCO)cc43)[C@@H](C(=O)N3CCN(c4ncccn4)CC3)[C@H]12", "Neuregulin-1 EGF-like domain", "Fulfilled"),
    ("CO[C@@H]1COC(=O)[C@H](COCc2ccccc2)NC(=O)CC=C[C@@H](C)[C@H](OC)COC(=O)[C@H](COCc2ccccc2)NC(=O)CC=C[C@H]1C", "Neuregulin-1 EGF-like domain", "Not fulfilled"),
    ("COc1ccc([Si](C)(C)[C@H]2[C@H](CC(=O)N(CCO)Cc3ccccc3)O[C@@]3(C(=O)N(C)c4ccccc43)[C@@H]2C)cc1", "Neuregulin-1 EGF-like domain", "Not fulfilled"),
    ("O=C1c2ccccc2[C@@]2(Cc3ccccc3N(CC(F)(F)F)C2=O)[C@H](c2ccc(CO)cc2)N1C1CCCCC1", "Neuregulin-1 EGF-like domain", "Fulfilled"),
    ("C=C(CCCC)C(=O)CC[C@@H](OC(C)=O)c1ccccc1OCCO", "Neuregulin-1 EGF-like domain", "Not fulfilled"),
    ("CCOC(=O)C[C@H]1[C@H](OC(=O)c2cc3ccccc3oc2=O)[C@@H](NC(=O)c2ccc3ccccc3c2)c2cc(OCCCO)ccc2N1C(=O)c1ccc2ccccc2n1", "Neuregulin-1 EGF-like domain", "Fulfilled"),
]
